src = ChEMBL document CHEMBL5331129

- Study Target: Protein cereblon/Kelch-like ECH-associated protein 1 (Mus musculus) (UniProt Q9Z2X8+Q8C7D2)
- Sequence (Q8C7D2 whole entry, looked up): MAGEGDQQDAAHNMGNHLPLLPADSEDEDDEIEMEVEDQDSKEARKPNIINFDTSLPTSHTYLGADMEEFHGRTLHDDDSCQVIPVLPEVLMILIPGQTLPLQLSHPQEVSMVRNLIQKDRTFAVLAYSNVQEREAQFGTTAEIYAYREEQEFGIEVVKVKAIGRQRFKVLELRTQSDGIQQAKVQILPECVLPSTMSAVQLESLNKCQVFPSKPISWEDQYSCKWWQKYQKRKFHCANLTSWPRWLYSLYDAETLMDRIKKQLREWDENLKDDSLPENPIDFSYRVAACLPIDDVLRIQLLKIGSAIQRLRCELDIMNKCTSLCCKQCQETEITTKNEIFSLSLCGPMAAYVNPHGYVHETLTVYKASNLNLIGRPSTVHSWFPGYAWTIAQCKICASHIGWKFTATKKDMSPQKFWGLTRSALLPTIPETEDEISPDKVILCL
- Sequence (Q9Z2X8 whole entry, looked up): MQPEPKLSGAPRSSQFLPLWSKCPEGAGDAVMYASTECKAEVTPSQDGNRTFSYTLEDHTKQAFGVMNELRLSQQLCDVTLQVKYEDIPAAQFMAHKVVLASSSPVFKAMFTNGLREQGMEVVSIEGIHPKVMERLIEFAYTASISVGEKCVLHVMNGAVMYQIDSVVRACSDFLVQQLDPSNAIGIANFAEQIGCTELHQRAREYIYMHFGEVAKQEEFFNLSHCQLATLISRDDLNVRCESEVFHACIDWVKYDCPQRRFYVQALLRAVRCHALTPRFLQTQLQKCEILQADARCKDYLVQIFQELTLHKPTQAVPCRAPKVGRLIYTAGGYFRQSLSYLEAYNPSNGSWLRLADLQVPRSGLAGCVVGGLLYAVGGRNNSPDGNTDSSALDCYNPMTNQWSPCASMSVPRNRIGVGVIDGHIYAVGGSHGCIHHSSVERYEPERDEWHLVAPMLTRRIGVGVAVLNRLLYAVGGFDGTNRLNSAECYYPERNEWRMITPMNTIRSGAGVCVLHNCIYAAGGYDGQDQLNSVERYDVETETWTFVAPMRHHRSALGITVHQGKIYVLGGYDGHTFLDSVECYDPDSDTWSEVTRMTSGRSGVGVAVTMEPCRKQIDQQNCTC
- Measurement Description: PROTAC activity at CRBN/Keap1 in mouse AML12 cells assessed as degradation of Keap1 protein at 1 uM incubated for 24 hrs by Western blotting analysis
- Type: cell-based
The source made the active and inactive calls. No cut-off for these calls is given here.
Assay Readout: Activity

compound="CN1C(=O)CCC(N2C(=O)c3cccc(NCCCCCNC(=O)[C@]45CCC(C)(C)C[C@H]4[C@H]4C(=O)C=C6C7(C)C=C(C#N)C(=O)C(C)(C)[C@@H]7CC[C@@]6(C)[C@]4(C)CC5)c3C2=O)C1=O (single isomer, unassigned)" measured_result=inactive
compound="Nc1cccc2c1C(=O)N(C1CCC(=O)NC1=O)C2=O (centres undefined)" measured_result=inactive
compound=CC1(C)CC[C@]2(C(=O)O)CC[C@]3(C)[C@H](C(=O)C=C4[C@@]5(C)C=C(C#N)C(=O)C(C)(C)[C@@H]5CC[C@]43C)[C@@H]2C1 measured_result=inactive
